PROTOCOL_DESCRIPTION: Solubility in aqueous solutions
Type: physicochemical
MEASUREMENT_CONTEXT: aqueous buffer; aqueous solution, pH 7.0
RECORDED_ENDPOINT: solubility

Input line: Provide only the value of recorded solubility for `CC(=O)c1ccc2c(c1)[C@H](NC(=O)c1ccc(F)cc1)[C@@H](OP(=O)(O)O)C(C)(C)O2`
Output line: ~10000 µg/mL

* * *

PROTOCOL_DESCRIPTION: Solubility in aqueous solutions
Type: physicochemical
MEASUREMENT_CONTEXT: aqueous solution, pH 5.1, aqueous buffer
RECORDED_ENDPOINT: solubility

Input line: Provide only the value of recorded solubility for `CC(=O)c1ccc2c(c1)[C@H](NC(=O)c1ccc(F)cc1)[C@@H](OC(=O)CN)C(C)(C)O2.Cl`
Output line: > 5000 µg/mL

* * *

PROTOCOL_DESCRIPTION: Solubility in aqueous solutions
Assay type: physicochemical
MEASUREMENT_CONTEXT: aqueous buffer; aqueous solution, pH 4.0
RECORDED_ENDPOINT: solubility

- CC(=O)c1ccc2c(c1)[C@H](NC(=O)c1ccc(F)cc1)[C@@H](OCOP(=O)([O-])O)C(C)(C)O2.[Na+]: > 10000 µg/mL

Shift focus to the following entry.
Input line: Provide only the value of recorded solubility for `CC(=O)c1ccc2c(c1)[C@H](NC(=O)c1ccc(F)cc1)[C@@H](OC(=O)OCCN1CCOCC1)C(C)(C)O2.Cl`
Output line: ~10000 µg/mL

* * *

PROTOCOL_DESCRIPTION: Solubility in aqueous solutions
Type: physicochemical
MEASUREMENT_CONTEXT: aqueous solution, pH 4.2, aqueous buffer
RECORDED_ENDPOINT: solubility

Input line: Provide only the value of recorded solubility for `CC(=O)c1ccc2c(c1)[C@H](NC(=O)c1ccc(F)cc1)[C@@H](OC(=O)[C@@H](NC(=O)[C@@H](N)C(C)C)C(C)C)C(C)(C)O2.Cl`
Output line: > 10000 µg/mL
